# System: Shigella boydii
# experimental protocol: Antimicrobial activity against Shigella boydii clinical isolate after 18 to 24 hrs by micro-dilution method
# Assay type: functional
MIC for assorted compounds

smiles entry | limit sign | MIC, µg/mL
Clc1cccc(-n2cc(CN(Cc3cn(-c4cccc(Cl)c4Cl)nn3)c3nc4ccccc4s3)nn2)c1Cl | > | 100
COc1cc(-n2cc(CN(Cc3cn(-c4cc(OC)c(OC)c(OC)c4)nn3)c3nc4ccccc4s3)nn2)cc(OC)c1OC | > | 100
Fc1ccc(-n2cc(CN(Cc3cn(-c4ccc(F)cc4Cl)nn3)c3nc4ccccc4s3)nn2)c(Cl)c1 | = | 100
Fc1ccc(-n2cc(CN(Cc3cn(-c4ccc(F)c(Cl)c4)nn3)c3nc4ccccc4s3)nn2)cc1Cl | = | 100

* * *

# System: Aspergillus fumigatus
# experimental protocol: Antimicrobial activity against Aspergillus fumigatus clinical isolate after 18 to 24 hrs by micro-dilution method
# Assay type: functional
readout name: MIC (µg/mL)

smiles entry | readout name | limit sign | numeric value
OC(Cn1cncn1)(Cn1cncn1)c1ccc(F)cc1F | MIC | = | 1.56
Fc1ccc(-n2cc(CN(Cc3cn(-c4ccc(F)c(Cl)c4)nn3)c3nc4ccccc4s3)nn2)cc1Cl | MIC | = | 25
Clc1ccc(-n2cc(CN(Cc3cn(-c4ccc(Cl)cc4)nn3)c3nc4ccccc4s3)nn2)cc1 | MIC | = | 6.25
Clc1cccc(-n2cc(CN(Cc3cn(-c4cccc(Cl)c4Cl)nn3)c3nc4ccccc4s3)nn2)c1Cl | MIC | > | 100
Clc1ccccc1-n1cc(CN(Cc2cn(-c3ccccc3Cl)nn2)c2nc3ccccc3s2)nn1 | MIC | > | 100
COc1cc(-n2cc(CN(Cc3cn(-c4cc(OC)c(OC)c(OC)c4)nn3)c3nc4ccccc4s3)nn2)cc(OC)c1OC | MIC | > | 100
FC(F)(F)Oc1ccc(-n2cc(CN(Cc3cn(-c4ccc(OC(F)(F)F)cc4)nn3)c3nc4ccccc4s3)nn2)cc1 | MIC | = | 25
c1ccc2c(-n3cc(CN(Cc4cn(-c5cccc6ccccc56)nn4)c4nc5ccccc5s4)nn3)cccc2c1 | MIC | > | 100

* * *

# Tested on: Escherichia coli
# experimental protocol: Antimicrobial activity against Escherichia coli ATCC 35218 after 18 to 24 hrs by micro-dilution method
# Format: functional

smiles entry | MIC
COc1cc(-n2cc(CN(Cc3cn(-c4cc(OC)c(OC)c(OC)c4)nn3)c3nc4ccccc4s3)nn2)cc(OC)c1OC | > 100 µg/mL
CCCCCc1ccc(-n2cc(CN(Cc3cn(-c4ccc(CCCCC)cc4)nn3)c3nc4ccccc4s3)nn2)cc1 | > 100 µg/mL
FC(F)(F)Oc1ccc(-n2cc(CN(Cc3cn(-c4ccc(OC(F)(F)F)cc4)nn3)c3nc4ccccc4s3)nn2)cc1 | 25 µg/mL
c1ccc2c(-n3cc(CN(Cc4cn(-c5cccc6ccccc56)nn4)c4nc5ccccc5s4)nn3)cccc2c1 | > 100 µg/mL
Brc1ccc(-n2cc(CN(Cc3cn(-c4ccc(Br)cc4)nn3)c3nc4ccccc4s3)nn2)cc1 | > 100 µg/mL
Clc1ccc(-n2cc(CN(Cc3cn(-c4ccc(Cl)cc4Cl)nn3)c3nc4ccccc4s3)nn2)c(Cl)c1 | 50 µg/mL
CCc1ccc(-n2cc(CN(Cc3cn(-c4ccc(CC)cc4)nn3)c3nc4ccccc4s3)nn2)cc1 | 50 µg/mL
Clc1cccc(-n2cc(CN(Cc3cn(-c4cccc(Cl)c4Cl)nn3)c3nc4ccccc4s3)nn2)c1Cl | > 100 µg/mL

* * *

# System: Cryptococcus neoformans
# experimental protocol: Antifungal activity against Cryptococcus neoformans clinical isolate after 18 to 24 hrs by micro-dilution method
# Type: functional
readout name: MIC (µg/mL)

smiles entry | limit sign | numeric value
CCCCCc1ccc(-n2cc(CN(Cc3cn(-c4ccc(CCCCC)cc4)nn3)c3nc4ccccc4s3)nn2)cc1 | > | 100
CCc1ccc(-n2cc(CN(Cc3cn(-c4ccc(CC)cc4)nn3)c3nc4ccccc4s3)nn2)cc1 | > | 100
COc1cc(-n2cc(CN(Cc3cn(-c4cc(OC)c(OC)c(OC)c4)nn3)c3nc4ccccc4s3)nn2)cc(OC)c1OC | > | 100
Fc1ccc(-n2cc(CN(Cc3cn(-c4ccc(F)c(Cl)c4)nn3)c3nc4ccccc4s3)nn2)cc1Cl | = | 1.56
FC(F)(F)Oc1ccc(-n2cc(CN(Cc3cn(-c4ccc(OC(F)(F)F)cc4)nn3)c3nc4ccccc4s3)nn2)cc1 | = | 3.12
c1ccc2c(-n3cc(CN(Cc4cn(-c5cccc6ccccc56)nn4)c4nc5ccccc5s4)nn3)cccc2c1 | > | 100
Clc1ccc(-n2cc(CN(Cc3cn(-c4ccc(Cl)cc4)nn3)c3nc4ccccc4s3)nn2)cc1 | = | 3.12
Cc1cc(C)cc(-n2cc(CN(Cc3cn(-c4cc(C)cc(C)c4)nn3)c3nc4ccccc4s3)nn2)c1 | = | 3.12
Clc1cccc(-n2cc(CN(Cc3cn(-c4cccc(Cl)c4Cl)nn3)c3nc4ccccc4s3)nn2)c1Cl | = | 3.12
Fc1cccc(-n2cc(CN(Cc3cn(-c4cccc(F)c4)nn3)c3nc4ccccc4s3)nn2)c1 | > | 100
OC(Cn1cncn1)(Cn1cncn1)c1ccc(F)cc1F | = | 0.78
COc1cccc(-n2cc(CN(Cc3cn(-c4cccc(OC)c4)nn3)c3nc4ccccc4s3)nn2)c1 | = | 1.56
Fc1ccc(-n2cc(CN(Cc3cn(-c4ccc(F)cc4Cl)nn3)c3nc4ccccc4s3)nn2)c(Cl)c1 | = | 1.56
O=[N+]([O-])c1ccc(-n2cc(CN(Cc3cn(-c4ccc([N+](=O)[O-])cc4)nn3)c3nc4ccccc4s3)nn2)cc1 | > | 100
Brc1ccc(-n2cc(CN(Cc3cn(-c4ccc(Br)cc4)nn3)c3nc4ccccc4s3)nn2)cc1 | = | 1.56
Cc1cc(F)ccc1-n1cc(CN(Cc2cn(-c3ccc(F)cc3C)nn2)c2nc3ccccc3s2)nn1 | > | 100
Fc1ccc(-n2cc(CN(Cc3cn(-c4ccc(F)cc4F)nn3)c3nc4ccccc4s3)nn2)c(F)c1 | > | 100

* * *

# Tested on: Cryptococcus neoformans
# experimental protocol: Antifungal activity against Cryptococcus neoformans clinical isolate after 18 to 24 hrs by micro-dilution method
# Assay type: functional
MIC for assorted compounds

smiles entry | MIC
Fc1ccccc1-n1cc(CN(Cc2cn(-c3ccccc3F)nn2)c2nc3ccccc3s2)nn1 | > 100 µg/mL
Cc1ccc(-n2cc(CN(Cc3cn(-c4ccc(C)c(C)c4)nn3)c3nc4ccccc4s3)nn2)cc1C | > 100 µg/mL
Clc1ccc(-n2cc(CN(Cc3cn(-c4ccc(Cl)cc4Cl)nn3)c3nc4ccccc4s3)nn2)c(Cl)c1 | 3.12 µg/mL
Clc1ccccc1-n1cc(CN(Cc2cn(-c3ccccc3Cl)nn2)c2nc3ccccc3s2)nn1 | > 100 µg/mL

* * *

# System: Pichia kudriavzevii
# experimental protocol: Antifungal activity against Candida krusei ATCC 6258 after 18 to 24 hrs by micro-dilution method
# Type: functional
readout name: MIC (µg/mL)

compound | readout name | measurement unit | limit sign | numeric value
Cc1cc(C)cc(-n2cc(CN(Cc3cn(-c4cc(C)cc(C)c4)nn3)c3nc4ccccc4s3)nn2)c1 | MIC | µg/mL | > | 100
Fc1ccccc1-n1cc(CN(Cc2cn(-c3ccccc3F)nn2)c2nc3ccccc3s2)nn1 | MIC | µg/mL | > | 100
Clc1cccc(-n2cc(CN(Cc3cn(-c4cccc(Cl)c4Cl)nn3)c3nc4ccccc4s3)nn2)c1Cl | MIC | µg/mL | > | 100
Clc1ccc(-n2cc(CN(Cc3cn(-c4ccc(Cl)cc4Cl)nn3)c3nc4ccccc4s3)nn2)c(Cl)c1 | MIC | µg/mL | = | 6.25
Fc1ccc(-n2cc(CN(Cc3cn(-c4ccc(F)c(Cl)c4)nn3)c3nc4ccccc4s3)nn2)cc1Cl | MIC | µg/mL | = | 3.12
CCc1ccc(-n2cc(CN(Cc3cn(-c4ccc(CC)cc4)nn3)c3nc4ccccc4s3)nn2)cc1 | MIC | µg/mL | > | 100
COc1cccc(-n2cc(CN(Cc3cn(-c4cccc(OC)c4)nn3)c3nc4ccccc4s3)nn2)c1 | MIC | µg/mL | = | 6.25
c1ccc2c(-n3cc(CN(Cc4cn(-c5cccc6ccccc56)nn4)c4nc5ccccc5s4)nn3)cccc2c1 | MIC | µg/mL | > | 100
Fc1ccc(-n2cc(CN(Cc3cn(-c4ccc(F)cc4Cl)nn3)c3nc4ccccc4s3)nn2)c(Cl)c1 | MIC | µg/mL | = | 6.25
COc1cc(-n2cc(CN(Cc3cn(-c4cc(OC)c(OC)c(OC)c4)nn3)c3nc4ccccc4s3)nn2)cc(OC)c1OC | MIC | µg/mL | = | 6.25
Cc1ccc(-n2cc(CN(Cc3cn(-c4ccc(C)c(C)c4)nn3)c3nc4ccccc4s3)nn2)cc1C | MIC | µg/mL | > | 100
OC(Cn1cncn1)(Cn1cncn1)c1ccc(F)cc1F [FLUCONAZOLE] | MIC | µg/mL | = | 1.56
Fc1cccc(-n2cc(CN(Cc3cn(-c4cccc(F)c4)nn3)c3nc4ccccc4s3)nn2)c1 | MIC | µg/mL | > | 100
CCCCCc1ccc(-n2cc(CN(Cc3cn(-c4ccc(CCCCC)cc4)nn3)c3nc4ccccc4s3)nn2)cc1 | MIC | µg/mL | > | 100
O=[N+]([O-])c1ccc(-n2cc(CN(Cc3cn(-c4ccc([N+](=O)[O-])cc4)nn3)c3nc4ccccc4s3)nn2)cc1 | MIC | µg/mL | > | 100
Fc1ccc(-n2cc(CN(Cc3cn(-c4ccc(F)cc4F)nn3)c3nc4ccccc4s3)nn2)c(F)c1 | MIC | µg/mL | > | 100
Brc1ccc(-n2cc(CN(Cc3cn(-c4ccc(Br)cc4)nn3)c3nc4ccccc4s3)nn2)cc1 | MIC | µg/mL | = | 6.25

This collection of values is drawn from ChEMBL document CHEMBL2375318.
